Biological target: Carbonic anhydrase 1 (Homo sapiens, UniProt P00915)
Sequence (P00915 whole entry): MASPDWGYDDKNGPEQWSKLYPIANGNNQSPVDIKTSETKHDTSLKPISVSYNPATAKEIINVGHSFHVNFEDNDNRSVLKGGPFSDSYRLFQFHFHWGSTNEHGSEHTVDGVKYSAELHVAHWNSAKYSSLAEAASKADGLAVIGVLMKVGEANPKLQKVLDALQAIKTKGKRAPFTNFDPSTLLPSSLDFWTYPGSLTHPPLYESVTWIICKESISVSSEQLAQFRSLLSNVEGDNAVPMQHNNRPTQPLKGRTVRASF
Test: Binding affinity to recombinant human carbonic anhydrase 1 after 15 mins by stopped-flow CO2 hydration assay
The compounds listed here are annotated with their Ki.
observable: Ki (µM)

given-smiles	qualifier-operator	reported-measurement
CS(=O)(=O)c1ccc(-c2cnc(N)c(C(=O)Nc3ccccc3)n2)cc1	>	50
CNCc1ccc(-c2cc(-c3nc(-c4ccc(S(=O)(=O)C(C)C)cc4)cnc3NS(N)(=O)=O)on2)cc1	>	50
NS(=O)(=O)c1ccc(CNC(=O)OCCCCc2ccc(N(CCCl)CCCl)cc2)cc1	=	6.14
NS(=O)(=O)c1ccc(NC(=O)CCCc2ccc(N(CCCl)CCCl)cc2)cc1	=	0.073
NS(=O)(=O)c1ccc(CCNC(=O)OCCCCc2ccc(N(CCCl)CCCl)cc2)cc1	=	5.67

----------
Target: Carbonic anhydrase 1 (Homo sapiens, UniProt P00915)
Assay: Binding affinity to recombinant human carbonic anhydrase 1 after 15 mins by stopped-flow CO2 hydration assay

compound	experimental-system	Ki
NS(=O)(=O)c1ccc(CCNC(=O)CCCc2ccc(N(CCCl)CCCl)cc2)cc1	Carbonic anhydrase 1 (Homo sapiens, UniProt P00915)	8.4 µM
Nc1n[n+]([O-])c2ccccc2[n+]1[O-] [TIRAPAZAMINE]	Carbonic anhydrase 1 (Homo sapiens, UniProt P00915)	> 50 µM
Cn1nnc2c(C(=O)NOS(N)(=O)=O)ncn2c1=O	Carbonic anhydrase 1 (Homo sapiens, UniProt P00915)	> 50 µM
O=C(O)CCCc1ccc(N(CCCl)CCCl)cc1 [CHLORAMBUCIL]	Carbonic anhydrase 1 (Homo sapiens, UniProt P00915)	> 50 µM
NS(=O)(=O)c1ccc(CNC(=O)CCCc2ccc(N(CCCl)CCCl)cc2)cc1	Carbonic anhydrase 1 (Homo sapiens, UniProt P00915)	5.95 µM
[H]/N=C(/N)N/C(=N/[H])NCCc1ccccc1 [PHENFORMIN]	Carbonic anhydrase 1 (Homo sapiens, UniProt P00915)	> 50 µM
Cn1nnc2c(C(N)=O)ncn2c1=O [TEMOZOLOMIDE]	Carbonic anhydrase 1 (Homo sapiens, UniProt P00915)	> 50 µM
CNCc1ccc(-c2cc(-c3nc(-c4ccc(S(=O)(=O)C(C)C)cc4)cnc3N)on2)cc1 [BERZOSERTIB]	Carbonic anhydrase 1 (Homo sapiens, UniProt P00915)	> 50 µM
NS(=O)(=O)c1ccc(NC(=O)OCCCCc2ccc(N(CCCl)CCCl)cc2)cc1	Carbonic anhydrase 1 (Homo sapiens, UniProt P00915)	5.58 µM
CS(=O)(=O)c1ccc(-c2cnc(NS(N)(=O)=O)c(C(=O)Nc3ccccc3)n2)cc1	Carbonic anhydrase 1 (Homo sapiens, UniProt P00915)	> 50 µM

----------
Tested on: MDCK
Test: Cytotoxicity against carbonic anhydrase 9 knockdown MDCK cells assessed as reduction in cell viability after 2 hrs under hypoxic condition by Alamar blue assay
Assay type: cell-based
Details: Canis lupus familiaris
pIC50: −log10 of the molar value.
Tag: Fulfilled if measured pIC50 is not below 4, Not fulfilled if it is.

given-smiles	experimental-system	classification
NS(=O)(=O)c1ccc(CCNc2n[n+]([O-])c3ccccc3[n+]2[O-])cc1	MDCK	Not fulfilled
NS(=O)(=O)c1ccc(CCNC(=O)CCCc2ccc(N(CCCl)CCCl)cc2)cc1	MDCK	Fulfilled
NS(=O)(=O)c1ccc(NC(=O)OCCCCc2ccc(N(CCCl)CCCl)cc2)cc1	MDCK	Fulfilled
NS(=O)(=O)c1ccc(CNC(=O)OCCCCc2ccc(N(CCCl)CCCl)cc2)cc1	MDCK	Fulfilled
NS(=O)(=O)c1ccc(CNC(=O)CCCc2ccc(N(CCCl)CCCl)cc2)cc1	MDCK	Fulfilled
NS(=O)(=O)c1ccc(CCNc2n[n+]([O-])c3cc4c(cc3[n+]2[O-])CCC4)cc1	MDCK	Not fulfilled
Nc1n[n+]([O-])c2ccccc2[n+]1[O-]	MDCK	Fulfilled

----------
Biological target: UniProtKB Q16790
Assay: Binding affinity to recombinant human carbonic anhydrase 9 after 15 mins by stopped-flow CO2 hydration assay
pKi: −log10 of the molar value.
observable: pKi

given-smiles	experimental-system	qualifier-operator	reported-measurement
Cn1nnc2c(C(=O)NCc3ccc(S(N)(=O)=O)cc3)ncn2c1=O	UniProtKB Q16790	=	6.57
Cn1nnc2c(C(=O)Nc3nnc(S(N)(=O)=O)s3)ncn2c1=O	UniProtKB Q16790	=	6.75
Cl.N=C(N)NC(=N)NCCc1ccc(S(N)(=O)=O)cc1	UniProtKB Q16790	=	7.69
Nc1n[n+]([O-])c2ccccc2[n+]1[O-]	UniProtKB Q16790	<	4.30
CS(=O)(=O)c1ccc(-c2cnc(N)c(C(=O)Nc3ccccc3)n2)cc1	UniProtKB Q16790	<	4.30
CNCc1ccc(-c2cc(-c3nc(-c4ccc(S(=O)(=O)C(C)C)cc4)cnc3NS(N)(=O)=O)on2)cc1	UniProtKB Q16790	<	4.30

----------
Tested on: MDCK
Assay: Cytotoxicity against MDCK cells expressing carbonic anhydrase 9 assessed as reduction in cell viability after 2 hrs under hypoxic condition by Alamar blue assay
Assay type: functional, cell-based
Conditions: Canis lupus familiaris
The molecules listed here are annotated with their IC50.

given-smiles	qualifier-operator	IC50 [µM]
NS(=O)(=O)c1ccc(CCNc2n[n+]([O-])c3ccccc3[n+]2[O-])cc1	>	300
NS(=O)(=O)c1ccc(CCNC(=O)OCCCCc2ccc(N(CCCl)CCCl)cc2)cc1	=	100
NS(=O)(=O)c1ccc(NC(=O)OCCCCc2ccc(N(CCCl)CCCl)cc2)cc1	=	62
O=C(O)CCCc1ccc(N(CCCl)CCCl)cc1	>	100
Nc1n[n+]([O-])c2ccccc2[n+]1[O-]	=	95
NS(=O)(=O)c1ccc(CNC(=O)OCCCCc2ccc(N(CCCl)CCCl)cc2)cc1	=	100
NS(=O)(=O)c1ccc(NC(=O)CCCc2ccc(N(CCCl)CCCl)cc2)cc1	=	95
NS(=O)(=O)c1ccc(CCNC(=O)CCCc2ccc(N(CCCl)CCCl)cc2)cc1	=	100
NS(=O)(=O)c1ccc(CNC(=O)CCCc2ccc(N(CCCl)CCCl)cc2)cc1	=	92
NS(=O)(=O)c1ccc(CCNc2n[n+]([O-])c3cc4c(cc3[n+]2[O-])CCC4)cc1	>	300

----------
Molecular target: Carbonic anhydrase 12 (Homo sapiens)
Sequence (O43570 whole entry): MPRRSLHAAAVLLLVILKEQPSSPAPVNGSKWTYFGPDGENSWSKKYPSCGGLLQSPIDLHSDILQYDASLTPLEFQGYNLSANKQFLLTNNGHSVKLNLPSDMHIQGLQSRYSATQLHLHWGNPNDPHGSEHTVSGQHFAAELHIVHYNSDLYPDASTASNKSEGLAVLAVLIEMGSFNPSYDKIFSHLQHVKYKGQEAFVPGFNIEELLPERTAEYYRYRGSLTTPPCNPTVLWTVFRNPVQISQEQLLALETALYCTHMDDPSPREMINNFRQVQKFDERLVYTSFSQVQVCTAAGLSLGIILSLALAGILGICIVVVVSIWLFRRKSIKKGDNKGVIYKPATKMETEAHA
Test: Binding affinity to recombinant human carbonic anhydrase 12 after 15 mins by stopped-flow CO2 hydration assay
observable: Ki (µM)

compound	experimental-system	observable	qualifier-operator	reported-measurement
[H]/N=C(/N)N/C(=N/[H])NCCc1ccccc1	Carbonic anhydrase 12 (Homo sapiens)	Ki	>	50
NS(=O)(=O)c1ccc(CNC(=O)CCCc2ccc(N(CCCl)CCCl)cc2)cc1	Carbonic anhydrase 12 (Homo sapiens)	Ki	=	7.34
CNCc1ccc(-c2cc(-c3nc(-c4ccc(S(=O)(=O)C(C)C)cc4)cnc3N)on2)cc1	Carbonic anhydrase 12 (Homo sapiens)	Ki	>	50
NS(=O)(=O)c1ccc(NC(=O)CCCc2ccc(N(CCCl)CCCl)cc2)cc1	Carbonic anhydrase 12 (Homo sapiens)	Ki	=	0.689
CS(=O)(=O)c1ccc(-c2cnc(N)c(C(=O)Nc3ccccc3)n2)cc1	Carbonic anhydrase 12 (Homo sapiens)	Ki	>	50
O=C(O)CCCc1ccc(N(CCCl)CCCl)cc1	Carbonic anhydrase 12 (Homo sapiens)	Ki	>	50
Cn1nnc2c(C(N)=O)ncn2c1=O [TEMOZOLOMIDE]	Carbonic anhydrase 12 (Homo sapiens)	Ki	>	50
NS(=O)(=O)c1ccc(CNC(=O)OCCCCc2ccc(N(CCCl)CCCl)cc2)cc1	Carbonic anhydrase 12 (Homo sapiens)	Ki	=	9.57
NS(=O)(=O)c1ccc(CCNC(=O)CCCc2ccc(N(CCCl)CCCl)cc2)cc1	Carbonic anhydrase 12 (Homo sapiens)	Ki	=	10.2
Cn1nnc2c(C(=O)NOS(N)(=O)=O)ncn2c1=O	Carbonic anhydrase 12 (Homo sapiens)	Ki	>	50
CNCc1ccc(-c2cc(-c3nc(-c4ccc(S(=O)(=O)C(C)C)cc4)cnc3NS(N)(=O)=O)on2)cc1	Carbonic anhydrase 12 (Homo sapiens)	Ki	>	50
NS(=O)(=O)c1ccc(CCNC(=O)OCCCCc2ccc(N(CCCl)CCCl)cc2)cc1	Carbonic anhydrase 12 (Homo sapiens)	Ki	=	13.6
Nc1n[n+]([O-])c2ccccc2[n+]1[O-]	Carbonic anhydrase 12 (Homo sapiens)	Ki	>	50
NS(=O)(=O)c1ccc(NC(=O)OCCCCc2ccc(N(CCCl)CCCl)cc2)cc1	Carbonic anhydrase 12 (Homo sapiens)	Ki	=	9.38
CS(=O)(=O)c1ccc(-c2cnc(NS(N)(=O)=O)c(C(=O)Nc3ccccc3)n2)cc1	Carbonic anhydrase 12 (Homo sapiens)	Ki	>	50

----------
Target: Carbonic anhydrase 2 (Homo sapiens, UniProt P00918)
Assay: Binding affinity to recombinant human carbonic anhydrase 2 after 15 mins by stopped-flow CO2 hydration assay
pKi: −log10 of the molar value.
observable: pKi

compound	reported-measurement
[H]/N=C(/N)N/C(=N/[H])NCCc1ccccc1	< 4.30
Cn1nnc2c(C(N)=O)ncn2c1=O [TEMOZOLOMIDE]	< 4.30
NS(=O)(=O)c1ccc(NC(=O)OCCCCc2ccc(N(CCCl)CCCl)cc2)cc1	6.26
NS(=O)(=O)c1ccc(CNC(=O)CCCc2ccc(N(CCCl)CCCl)cc2)cc1	6.13
CNCc1ccc(-c2cc(-c3nc(-c4ccc(S(=O)(=O)C(C)C)cc4)cnc3NS(N)(=O)=O)on2)cc1	< 4.30
CS(=O)(=O)c1ccc(-c2cnc(NS(N)(=O)=O)c(C(=O)Nc3ccccc3)n2)cc1	< 4.30
Cn1nnc2c(C(=O)NOS(N)(=O)=O)ncn2c1=O	< 4.30
NS(=O)(=O)c1ccc(CNC(=O)OCCCCc2ccc(N(CCCl)CCCl)cc2)cc1	6.58
CS(=O)(=O)c1ccc(-c2cnc(N)c(C(=O)Nc3ccccc3)n2)cc1	< 4.30
Nc1n[n+]([O-])c2ccccc2[n+]1[O-]	< 4.30
